Origin of the recorded values: ChEMBL document CHEMBL2218924

- study_target: Inhibitor of nuclear factor kappa-B kinase subunit beta (Homo sapiens)
- Sequence (whole entry): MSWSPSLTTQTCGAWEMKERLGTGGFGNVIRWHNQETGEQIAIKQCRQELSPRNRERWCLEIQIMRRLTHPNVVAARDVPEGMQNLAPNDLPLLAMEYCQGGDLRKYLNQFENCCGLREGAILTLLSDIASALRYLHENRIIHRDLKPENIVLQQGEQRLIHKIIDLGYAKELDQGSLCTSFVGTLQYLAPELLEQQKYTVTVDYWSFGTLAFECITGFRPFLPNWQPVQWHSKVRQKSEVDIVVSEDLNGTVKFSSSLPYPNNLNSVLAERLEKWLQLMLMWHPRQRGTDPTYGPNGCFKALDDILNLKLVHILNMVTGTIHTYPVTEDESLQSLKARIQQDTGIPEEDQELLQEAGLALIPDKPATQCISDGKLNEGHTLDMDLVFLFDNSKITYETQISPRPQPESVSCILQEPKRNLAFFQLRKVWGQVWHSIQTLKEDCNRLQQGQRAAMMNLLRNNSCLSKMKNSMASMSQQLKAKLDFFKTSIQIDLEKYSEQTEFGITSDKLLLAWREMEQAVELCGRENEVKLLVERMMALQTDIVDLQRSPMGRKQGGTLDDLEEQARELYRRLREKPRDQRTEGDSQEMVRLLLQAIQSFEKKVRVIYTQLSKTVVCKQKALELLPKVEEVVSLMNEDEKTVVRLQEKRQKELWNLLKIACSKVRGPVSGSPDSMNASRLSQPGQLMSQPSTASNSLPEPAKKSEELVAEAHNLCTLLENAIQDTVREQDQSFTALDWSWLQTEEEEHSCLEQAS
- measurement_conditions: at 1 µM
residual activity overview
measurement_label: residual activity (%)

1) CC(C)c1nn(-c2c(Cl)cccc2Cl)c2nc(Cc3ccc(OCCO)cc3)[nH]c(=O)c12 :: 109
2) Nc1n[nH]c2nc3ccccc3nc12 :: 122
3) COc1ccc(CNC(=O)Nc2ncc([N+](=O)[O-])s2)cc1 :: 109
4) Nc1ncnc2[nH]nc(Nc3ccc(F)cc3)c12 :: 115
5) CN(C)S(=O)(=O)c1ccc2c(c1)/C(=C/c1cc3c([nH]1)CCCC3)C(=O)N2 :: 100
6) O=C(c1cc2cc(O)ccc2[nH]1)c1cc2cc(O)ccc2[nH]1 :: 70
7) COc1cc2c(cc1OC)-c1n[nH]c(Nc3cccc(F)c3)c1C2 :: 101
8) O=C1C(Cl)=C(N2C(=O)CCC2=O)C(=O)c2ccccc21 :: 116
